test system: RNA polymerase II Serine 5 phosphorylation (Rpb1 CTD), downstream substrate of CDK7; experiment: Imaging-based cellular RNA PolII Ser5 phosphorylation assay in A549 cells; assay type: cell-based, human; details: Homo sapiens, A549, 3 h, challenged with compound for 3 hours, read-out: pRNA polII Ser5 (A549) pIC50 (converted)
Listing of recorded IC50 by entry.
readout-name: IC50

> print(dat)
                                   molecule  data.value
1  C[C@@H]1Cc2cnc(NC3Cc4ccccc4C3)nc2CN1C(=O)[C@H]1CCN(C)C[C@@H]1c1ccccc1     12.6 nM
2  C[C@@H]1Cc2cnc(NC3CCN(C4COC4)CC3)nc2CN1C(=O)[C@H]1CCN(C)C[C@@H]1c1ccccc1      776 nM
3  C[C@@H]1Cc2cnc(NCc3ccn(C)n3)nc2CN1C(=O)[C@H]1CCN(C)C[C@@H]1c1ccccc1    ~45.7 nM
4  C[C@@H]1c2nc(NC3CCOCC3)ncc2CCN1C(=O)[C@H]1CCN(C)C[C@@H]1c1ccccc1 (relative stereo)  > 10000 nM
5  CC(C)Oc1cccc([C@H]2CN(C)CC[C@@H]2C(=O)N2Cc3nc(NCc4ccn(C)n4)ncc3C[C@H]2C)c1 (relative stereo) [Compound 138b]      182 nM
6  C[C@@H]1Cc2cnc(N[C@@H]3CCOC(C)(C)C3)nc2CN1C(=O)[C@H]1CCN(C)C[C@@H]1c1ccccc1 (relative stereo)    ~52.5 nM

###

tested on: RNA polymerase II Serine 5 phosphorylation (Rpb1 CTD), downstream substrate of CDK7; assay: Imaging-based cellular RNA PolII Ser5 phosphorylation assay in A549 cells; type: cell-based, human; conditions: Homo sapiens, A549, 3 h, challenged with compound for 3 hours, read-out: pRNA polII Ser5 (A549) pIC50 (converted)
readout-name: IC50 (nM)

> print(dat)
                                    compound  censoring.operator  data.value
 1  Cc1ccc([C@H]2CN(C)CC[C@@H]2C(=O)N2Cc3nc(NC4CCOCC4)ncc3C[C@H]2C)cn1 (relative stereo)                   >       10000
 2  C[C@@H]1Cc2cnc(Nc3cn(C)nc3C(F)(F)F)nc2CN1C(=O)[C@H]1CCN(C)C[C@@H]1c1ccccc1                   =        1120
 3  CO[C@]1(C)CC[C@H](Nc2ncc3c(n2)CN(C(=O)[C@H]2CCN(C)C[C@@H]2c2ccccc2)[C@H](C)C3)CC1                   =        1350
 4  C[C@@H]1CN(C(=O)[C@H]2CCN(C)C[C@@H]2c2ccccc2)[C@@H](C)c2nc(NC3CCOCC3)ncc21 [Compound 180b]                   =        3890
 5  C[C@@H]1Cc2cnc(NC3CCOCC3)nc2CN1C(=O)[C@H]1CCN(C)C[C@@H]1C1CC1 (relative stereo) [Compound 113]                   =        1740
 6  C[C@@H]1Cc2cnc(NC3CCOCC3)nc2CN1C(=O)[C@H]1CCN(C)C[C@@H]1c1cccc(F)c1 (relative stereo)                   =        97.7
 7  C[C@@H]1Cc2cnc(NC3CCN(CC(F)(F)F)CC3)nc2CN1C(=O)[C@H]1CCN(C)C[C@@H]1c1ccccc1                   =         437
 8  CC(C)Oc1cccc([C@@H]2CN(C)CC[C@H]2C(=O)N2Cc3nc(NCc4ccn(C)n4)ncc3C[C@H]2C)c1 (relative stereo) [Compound 138a]                   >       10000
 9  CCO[C@H]1CC[C@H](Nc2ncc3c(n2)CN(C(=O)[C@H]2CCN(C)C[C@@H]2c2ccccc2)[C@H](C)C3)CC1                   =        41.7
10  CC[C@@H]1Cc2cnc(NC3CCOCC3)nc2CN1C(=O)[C@H]1CCN(C)C[C@@H]1c1ccccc1 (relative stereo)                   =         724
11  C[C@H]1Cc2cnc(NC3CCOCC3)cc2CN1C(=O)[C@H]1CCN(C)C[C@@H]1c1ccccc1 (single isomer, unassigned) [Compound 171a]                   =         288

###

system: RNA polymerase II Serine 5 phosphorylation (Rpb1 CTD), downstream substrate of CDK7; assay: Imaging-based cellular RNA PolII Ser5 phosphorylation assay in A549 cells; type: cell-based, human; details: Homo sapiens, A549, 3 h, challenged with compound for 3 hours, read-out: pRNA polII Ser5 (A549) pIC50 (converted)
readout-name: IC50

> print(dat)
                                   molecule  readout.name  data.value
1  Cc1cccc([C@H]2CN(C)CC[C@@H]2C(=O)N2Cc3nc(NC4CCOCC4)ncc3C[C@H]2C)c1 (relative stereo) [Compound 134]          IC50    ~67.6 nM
2  CO[C@H]1CC[C@H](Nc2ncc3c(n2)CN(C(=O)[C@H]2CCN(C)C[C@@H]2c2ccccc2)[C@H]2C[C@@H]32)CC1          IC50    ~19.5 nM
3  Cc1cc(Nc2ncc3c(n2)CN(C(=O)[C@H]2CCN(C)C[C@@H]2c2ccccc2)[C@H](C)C3)ccn1          IC50    ~57.5 nM
4  C[C@@H]1C[C@H](C(=O)N2Cc3nc(NC4CCOCC4)ncc3C[C@H]2C)[C@@H](c2ccccc2)CN1C (relative stereo) [Compound 170a]          IC50  > 10000 nM

###

target: CDK7/Cyclin H/MAT-1 complex (Homo sapiens); construct: Human CDK7 (amino acids 1-346); His6 (N); TEV protease cleavage site (N); made in house; host or cells: baculovirus-SF9 insect cells; test: Absorbance kinetic assay (20 nM CDK7/Cyclin H/MAT-1 complex); assay type: biochemical
Sequence (P50613 whole entry, the tested form may be a part): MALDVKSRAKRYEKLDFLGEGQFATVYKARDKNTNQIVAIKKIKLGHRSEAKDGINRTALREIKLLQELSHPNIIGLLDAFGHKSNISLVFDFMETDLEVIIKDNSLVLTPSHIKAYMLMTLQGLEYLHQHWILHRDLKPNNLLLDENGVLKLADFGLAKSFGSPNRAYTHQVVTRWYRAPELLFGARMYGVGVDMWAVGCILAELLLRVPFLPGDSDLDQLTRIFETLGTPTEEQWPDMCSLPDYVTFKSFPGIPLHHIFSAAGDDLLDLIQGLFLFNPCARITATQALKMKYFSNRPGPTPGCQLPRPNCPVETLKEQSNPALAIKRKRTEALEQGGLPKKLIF
Sequence (P51946 whole entry partner, the tested form may be a part): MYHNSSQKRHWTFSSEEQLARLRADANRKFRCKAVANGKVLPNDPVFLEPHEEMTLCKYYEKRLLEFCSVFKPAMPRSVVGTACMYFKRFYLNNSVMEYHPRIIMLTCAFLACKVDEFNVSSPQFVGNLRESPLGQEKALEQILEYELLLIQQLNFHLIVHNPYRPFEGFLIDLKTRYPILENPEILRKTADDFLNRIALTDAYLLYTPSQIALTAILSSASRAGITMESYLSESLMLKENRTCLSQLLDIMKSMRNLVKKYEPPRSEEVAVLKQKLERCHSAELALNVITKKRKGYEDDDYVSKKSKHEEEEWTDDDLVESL
Sequence (P51948 whole entry partner, the tested form may be a part): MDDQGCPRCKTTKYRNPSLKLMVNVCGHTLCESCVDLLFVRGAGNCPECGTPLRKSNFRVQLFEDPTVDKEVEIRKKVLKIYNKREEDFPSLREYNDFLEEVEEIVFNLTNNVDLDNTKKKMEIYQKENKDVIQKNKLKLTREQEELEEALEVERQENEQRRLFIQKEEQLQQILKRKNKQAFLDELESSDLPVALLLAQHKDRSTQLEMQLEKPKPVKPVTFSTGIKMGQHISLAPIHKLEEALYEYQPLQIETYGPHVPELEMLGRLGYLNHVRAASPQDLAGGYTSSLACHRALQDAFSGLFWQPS
readout-name: CDK7 (20 nM) pIC50

> print(dat)
                               smiles.entry        readout.name  data.value
1  Cc1cn(C)nc1CNc1ncc2c(n1)CN(C(=O)[C@H]1CCN(C)C[C@@H]1c1ccccc1)[C@H](C)C2  CDK7 (20 nM) pIC50       >8.01
2  C[C@@H]1Cc2cnc(Nc3cnn(C)c3)nc2CN1C(=O)[C@H]1CCN(C)C[C@@H]1c1ccccc1  CDK7 (20 nM) pIC50       >8.01
3  C[C@@H]1Cc2cnc(NC3CCN(S(=O)(=O)C4CC4)CC3)nc2CN1C(=O)N1CCN(C)C[C@@H]1c1ccccc1  CDK7 (20 nM) pIC50        >7.7

###

target: CDK7/Cyclin H/MAT-1 complex (Homo sapiens); construct: Human CDK7 (amino acids 1-346); His6 (N); TEV protease cleavage site (N); made in house; host or cells: baculovirus-SF9 insect cells; assay: Absorbance kinetic assay (20 nM CDK7/Cyclin H/MAT-1 complex); format: biochemical
readout-name: CDK7 (20 nM) pIC50

> print(dat)
                                   compound  data.value
1  C[C@@H]1Cc2cnc(NCc3ccccc3)nc2CN1C(=O)[C@H]1CCN(CC2COC2)C[C@@H]1c1ccccc1 (single isomer, unassigned) [Compound 155]       >8.01
2  CO[C@]1(C)CC[C@@H](Nc2ncc3c(n2)CN(C(=O)[C@H]2CCN(C)C[C@@H]2c2ccccc2)[C@H](C)C3)CC1 [Compound 10]       >8.01
3  C[C@@H]1Cc2cnc(NC3CCN(S(=O)(=O)N(C)C)CC3)nc2CN1C(=O)N1CCN(C)C[C@@H]1c1ccccc1 [Compound 211]        >7.7

###

tested on: RNA polymerase II Serine 5 phosphorylation (Rpb1 CTD), downstream substrate of CDK7; assay: Imaging-based cellular RNA PolII Ser5 phosphorylation assay in A549 cells; type: cell-based, human; conditions: Homo sapiens, A549, 3 h, challenged with compound for 3 hours, read-out: pRNA polII Ser5 (A549) pIC50 (converted)
Note to self: use yes (1) only for IC50 readings below 300 nM; a reading exactly at 300 nM still gets no (0).

> print(dat)
                                    compound  class.label
 1  Cc1cc([C@H]2CN(C)CC[C@@H]2C(=O)N2Cc3nc(NC4CCOCC4)ncc3C[C@H]2C)ccn1 (relative stereo)       no (0)
 2  CC(C)N1CC[C@H](C(=O)N2Cc3nc(NC4CCOCC4)ncc3C[C@H]2C)[C@@H](c2cccc(Cl)c2)C1 (single isomer, unassigned)      yes (1)
 3  C[C@H]1CN(C(=O)[C@H]2CCN(C)C[C@@H]2c2ccccc2)Cc2nc(NC3CCOCC3)ncc21 (relative stereo)       no (0)
 4  [2H]C([2H])([2H])c1cccc([C@@H]2CN(C)CC[C@H]2C(=O)N2Cc3nc(NCc4ccn(C)n4)ncc3C[C@H]2C)c1 (relative stereo)       no (0)
 5  C[C@@H]1Cc2cnc(NC(C)(C)c3cnn(C)c3)nc2CN1C(=O)[C@H]1CCN(C)C[C@@H]1c1ccccc1       no (0)
 6  C[C@@H]1Cc2cnc(NCc3ccccc3)nc2CN1C(=O)[C@H]1CCN(C)C[C@@H]1c1ccccc1      yes (1)
 7  CO[C@H]1CC[C@H](Nc2cc3c(cn2)C[C@H](C)N(C(=O)[C@H]2CCN(C)C[C@@H]2c2ccccc2)C3)CC1 (single isomer, unassigned)      yes (1)
 8  C[C@@H]1CN(C)CC[C@H]1C(=O)N1Cc2nc(NC3CCOCC3)ncc2C[C@H]1C (relative stereo)       no (0)
 9  C[C@@H]1Cc2cnc(NC3CCC(OC(F)F)CC3)nc2CN1C(=O)[C@H]1CCN(C)C[C@@H]1c1ccccc1 (stereo partly shown)      yes (1)
10  C[C@@H]1Cc2cnc(NC3CCOCC3)nc2[C@H](C)N1C(=O)[C@H]1CCN(C)C[C@@H]1c1ccccc1 (single isomer, unassigned) [Compound 195b]      yes (1)
11  C[C@H]1Cc2cnc(NC3CCOCC3)nc2CN1C(=O)N1CCN(C)C[C@H]1c1cccc(F)c1 (relative stereo)      yes (1)
12  C[C@H]1Cc2cnc(NC3CCOCC3)nc2[C@H](C)N1C(=O)[C@H]1CCN(C)C[C@@H]1c1ccccc1       no (0)
13  CO[C@H]1CC[C@H](Nc2ncc3c(n2)CN(C(=O)[C@H]2CCN(C)C[C@@H]2c2ccccc2)C2(CC2)C3)CC1       no (0)
